- Study System: Recombinant human c-KIT kinase (Homo sapiens (Human), UniProt P10721)
- Sequence (P10721 26-976): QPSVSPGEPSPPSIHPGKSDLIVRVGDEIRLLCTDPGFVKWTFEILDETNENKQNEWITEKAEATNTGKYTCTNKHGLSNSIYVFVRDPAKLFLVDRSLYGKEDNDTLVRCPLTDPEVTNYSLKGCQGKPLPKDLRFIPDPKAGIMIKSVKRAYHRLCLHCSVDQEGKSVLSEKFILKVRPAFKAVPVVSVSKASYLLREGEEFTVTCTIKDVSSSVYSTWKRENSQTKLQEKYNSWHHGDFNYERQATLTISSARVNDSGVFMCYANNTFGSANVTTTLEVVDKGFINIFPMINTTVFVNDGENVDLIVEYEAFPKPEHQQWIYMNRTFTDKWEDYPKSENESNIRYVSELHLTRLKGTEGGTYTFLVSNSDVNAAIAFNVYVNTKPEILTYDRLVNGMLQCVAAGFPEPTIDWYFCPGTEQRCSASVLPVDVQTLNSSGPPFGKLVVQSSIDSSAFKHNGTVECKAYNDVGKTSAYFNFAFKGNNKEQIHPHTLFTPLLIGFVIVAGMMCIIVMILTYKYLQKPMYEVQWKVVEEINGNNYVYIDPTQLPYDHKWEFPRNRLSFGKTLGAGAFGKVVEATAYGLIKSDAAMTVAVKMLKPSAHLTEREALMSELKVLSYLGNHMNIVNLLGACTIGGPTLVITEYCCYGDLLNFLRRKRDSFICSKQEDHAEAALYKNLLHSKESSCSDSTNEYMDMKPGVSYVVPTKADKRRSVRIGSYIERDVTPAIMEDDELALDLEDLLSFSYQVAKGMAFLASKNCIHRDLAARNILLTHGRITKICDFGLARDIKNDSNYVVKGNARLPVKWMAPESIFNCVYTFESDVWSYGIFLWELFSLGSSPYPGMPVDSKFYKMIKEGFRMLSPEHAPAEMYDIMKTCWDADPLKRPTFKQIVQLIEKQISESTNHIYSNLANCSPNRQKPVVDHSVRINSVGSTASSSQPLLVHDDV
- Procedure Summary: c-KIT kinase chemiluminescence assay (ADP-Glo)
- Condition Summary: ATP 50 μM
pIC50: −log10 of the molar value.
Quantity Measured: pIC50

Exercise: Enter reported pIC50 observed with Recombinant human c-KIT kinase (Homo sapiens (Human), UniProt P10721) for Cc1ccc(-c2noc([C@H]3C[C@@H]3F)n2)cc1NC(=O)c1cnn2ccc(CN3CCOCC3)cc12 [Example 70]
Solution: > 7.00

###

- Study System: Recombinant human c-KIT kinase (Homo sapiens (Human), UniProt P10721)
- Procedure Summary: c-KIT kinase chemiluminescence assay (ADP-Glo)
- Format: biochemical
- Condition Summary: ATP 50 μM
Quantity Measured: IC50

Worked set:
>  <Compound>
Cc1ncc(-c2noc(C3CN(C(=O)[C@H]4CC4(F)F)C3)n2)cc1NC(=O)c1cnn2ccc(N3CC4(C3)CC(O)(C(F)F)C4)cc12 [Example 281-91]

>  <IC50>
> 1000 nM

$$$$
>  <Compound>
Cc1ccc(-c2noc(C3CN(C(=O)[C@H]4C[C@@H]4F)C3)n2)cc1NC(=O)c1cnn2ccc(N3CC4(C3)CC(O)(C(F)F)C4)cc12 [Example 281-34]

>  <IC50>
100 to 1000 nM

$$$$

# context switch: different compound, same IC50
Exercise: Lookup: IC50 / Recombinant human c-KIT kinase (Homo sapiens (Human), UniProt P10721) / Cc1sc(-c2ncc(C3CC3)cn2)cc1NC(=O)c1cnn2ccc(N3CC4(C3)CC(O)(C(F)F)C4)cc12 [Example 346]
Solution: < 100 nM

###

- Study System: Recombinant human c-KIT kinase (Homo sapiens (Human), UniProt P10721)
- Procedure Summary: c-KIT kinase chemiluminescence assay (ADP-Glo)
- Condition Summary: ATP 50 μM
Quantity Measured: IC50

>  <Compound>
Cc1ccc(-c2noc([C@H]3C[C@@H]3F)n2)cc1NC(=O)c1cnc(-c2ccc(F)c3[nH]ccc23)o1 [Example 308-42]

>  <Quantity Measured>
IC50

>  <Endpoint Value>
100 to 1000 nM

$$$$
>  <Compound>
Cc1ccc(-c2noc([C@H]3C[C@@H]3F)n2)cc1NC(=O)c1cnn2ccc(N3C4COCC3C4)cc12 [Example 189]

>  <Quantity Measured>
IC50

>  <Endpoint Value>
< 100 nM

$$$$
>  <Compound>
Cc1ccc(-c2noc([C@H]3C[C@@H]3F)n2)cc1NC(=O)c1cccnn1 [Example 5]

>  <Quantity Measured>
IC50

>  <Endpoint Value>
> 1000 nM

$$$$

Exercise: Field: IC50 (Recombinant human c-KIT kinase (Homo sapiens (Human), UniProt P10721)). Entry: CCOC(=O)N1CC(c2nc(-c3ccc(C)c(NC(=O)c4cnn5ccc(N6CC7(COC7)C6)cc45)c3)no2)C1 [Example 281-110]
Solution: < 100 nM

###

- Study System: Recombinant human c-KIT kinase (Homo sapiens (Human))
- Procedure Summary: c-KIT kinase chemiluminescence assay (ADP-Glo)
- Condition Summary: ATP 50 μM
pIC50: −log10 of the molar value.
Quantity Measured: pIC50

>  <Compound>
Cc1ccc(-c2noc([C@H]3C[C@@H]3F)n2)cc1NC(=O)c1cnn2ccc(-c3cnn(C4COC4)c3)cc12

>  <pIC50>
> 7.00

$$$$

Exercise: Look up pIC50 for this compound: "CC#Cc1ccc2c(C(=O)Nc3cc(-c4noc([C@H]5C[C@@H]5F)n4)c(F)cc3C)cnn2c1"
Solution: 6.00 to 7.00

Exercise: And what about the compound "Cc1ccc(-c2noc([C@H]3C[C@@H]3F)n2)cc1NC(=O)c1cnc(-c2cccc3c2NC(=O)C3)o1" ?
Solution: < 6.00

Exercise: // same read-out, input: "Cc1ccc(-c2noc([C@H]3C[C@@H]3F)n2)cc1NC(=O)c1cnn2ccc(N3CCS(=O)(=O)CC3)cc12"
Solution: > 7.00

Exercise: Also, "Cc1ccc(-c2noc([C@H]3C[C@@H]3F)n2)cc1NC(=O)c1cnn2ccc(C(=O)N3CCCCC3)cc12" please.
Solution: < 6.00

Exercise: And for "COC(=O)N1CCn2nc(-c3ccc(C)c(NC(=O)c4cnn5ccc(N6CC7(C6)CC(O)(C(F)F)C7)cc45)c3)nc2C1" ?
Solution: 6.00 to 7.00

Exercise: Quick one: "Cc1ccc(-c2noc([C@H]3C[C@@H](OC(F)(F)F)C3)n2)cc1NC(=O)c1cnn2ccc(N3CC4(CCN(CC(F)F)C4)C3)cc12"
Solution: 6.00 to 7.00

Exercise: Try this compound too: "CCC1(O)CC2(CN(c3ccn4ncc(C(=O)Nc5cc(-c6noc([C@H]7C[C@@H]7F)n6)ccc5C)c4c3)C2)C1"
Solution: > 7.00

Exercise: Queued: "Cc1ccc(-c2noc([C@H]3C[C@@H]3F)n2)cc1NC(=O)c1cnn2ccc(NC(=O)OC3CC3)cc12"
Solution: 6.00 to 7.00

Exercise: Next compound up: "Cc1ccc(-c2noc([C@H]3C[C@@H]3F)n2)cc1NC(=O)c1cnc(-c2ccc3c(c2)NC(=O)C3)o1"
Solution: 6.00 to 7.00

Exercise: Do the same for "Cc1ccc(-c2noc([C@H]3C[C@@H]3F)n2)cc1NC(=O)c1cnn2c1ccc1ccccc12" please
Solution: 6.00 to 7.00

Exercise: Try this compound next: "Cc1ccc(-c2noc([C@H]3C[C@@H]3F)n2)cc1NC(=O)c1cnc(-c2ccncc2)o1"
Solution: < 6.00

Exercise: One more compound: Cc1ccc(-c2noc([C@H]3C[C@@H]3F)n2)cc1NC(=O)c1cnc2n1C(C)c1ccccc1-2 (stereo partly shown)
Solution: > 7.00

Exercise: Now the compound "Cc1ccc(-c2noc([C@H]3C[C@@H]3F)n2)cc1NC(=O)c1cnc(-c2ccc3cn[nH]c3c2)o1"
Solution: > 7.00

Exercise: Further, for "Cc1ccc(-c2noc([C@H]3C[C@@H]3F)n2)cc1NC(=O)c1cnn2ccc(N3CCNC[C@@H]3C)cc12" ?
Solution: > 7.00

Exercise: Param item: "CC(=O)Nc1ncc(C(=O)Nc2cc(-c3noc([C@H]4C[C@@H]4F)n3)ccc2C)s1"
Solution: 6.00 to 7.00

Exercise: Next record, please: "Cc1ccc(-c2noc([C@H]3C[C@@H]3F)n2)cc1NC(=O)c1cccnc1"
Solution: < 6.00

Exercise: Again, but for "Cc1ccc(-c2noc([C@H]3C[C@@H]3F)n2)cc1NC(=O)c1cnn2cc(-c3cnnn3CCO)ccc12"
Solution: 6.00 to 7.00

###

Below: a set of entries, each annotated with reported EC50.
- Test system: M-07e cells
- Procedure Summary: M-07e cellular assay (SCF-mediated cell proliferation)
- Format: cell-based
- Condition Summary: Homo sapiens, 72 hours, CellTiter Glo
- Method: M-07e cells (Creative Bioarray, CSC-C0249) which endogenously express human c-KIT were used to evaluate the effect of compounds on stem cell factor (SCF)-mediated cell proliferation. […] Twenty-four hours later, three-fold serially diluted test compounds in media containing SCF (at the previously determined EC90) were added to the plated M-07e cells and incubated for an additional 72 hours. […] The EC50 was determined using GraphPad Prism. […]

Exercise: Look up EC50 for this molecule: "Cc1ccc(-c2noc([C@H]3C[C@@H]3F)n2)cc1NC(=O)c1cnc(-c2cccc3[nH]ncc23)o1"
Solution: 100 to 1000 nM

Exercise: # repeat for "Cc1ccc(-c2noc([C@H]3C[C@@H]3F)n2)cc1NC(=O)c1cnn2ccc(N3CC[C@@H](NC(=O)OC(C)(C)C)C3)cc12"
Solution: 100 to 1000 nM

Exercise: Input "Cc1ccc(-c2noc([C@H]3C[C@@H]3F)n2)cc1NC(=O)c1cnc(-c2cccc(NC(=O)OC(C)(C)C)n2)o1"
Solution: > 1000 nM

Exercise: And the next one, Cc1ccc(-c2noc([C@H]3C[C@@H]3F)n2)cc1NC(=O)c1cnn2ccc(N3CCC4(C3)CC4(F)F)cc12 (stereo partly drawn) ?
Solution: < 100 nM

Exercise: Input "Cc1ccc(-c2noc([C@H]3C[C@@H](OC(F)(F)F)C3)n2)cc1NC(=O)c1cnn2ccc(-c3c(C)nc(N)nc3C)cc12"
Solution: 100 to 1000 nM

Exercise: Now consider "Cc1ccc(-c2noc([C@H]3C[C@@H]3F)n2)cc1NC(=O)c1cnc(-c2cccc(N3CC4(COC4)C3)c2)o1" and answer again.
Solution: 100 to 1000 nM

###

- Study System: Recombinant human c-KIT kinase (Homo sapiens (Human), UniProt P10721)
- Procedure Summary: c-KIT kinase chemiluminescence assay (ADP-Glo)
- Condition Summary: ATP 50 μM
pIC50: −log10 of the molar value.
Quantity Measured: pIC50

Below, 5 molecules whose answers are already recorded.
>  <Molecule>
Cc1ccc(-c2noc([C@H]3C[C@@H]3F)n2)cc1NC(=O)c1cnn2ccc(-c3cnc(C(F)(F)F)nc3)cc12 [Example 157]

>  <Endpoint Value>
6.00 to 7.00

$$$$
>  <Molecule>
Cc1ccc(-c2noc([C@H]3C[C@@H]3F)n2)cc1NC(=O)c1cnn2cc(Cl)c(-c3c(C)nn(CC(C)(C)O)c3C)cc12 [Example 165]

>  <Endpoint Value>
< 6.00

$$$$
>  <Molecule>
Cc1sc(-c2noc(C3CN(C(=O)[C@H]4C[C@@H]4F)C3)n2)cc1NC(=O)c1cnn2ccc(N3CC4(COC4)C3)cc12 [Example 281-126]

>  <Endpoint Value>
< 6.00

$$$$
>  <Molecule>
Cc1ccc(-c2noc([C@H]3C[C@@H]3F)n2)cc1NC(=O)c1cnn2ccc(N3CC4(C3)CC(O)(C(F)(F)F)C4)cc12 [Example 233]

>  <Endpoint Value>
> 7.00

$$$$
>  <Molecule>
Cc1ccc(-c2noc([C@H]3C[C@@H]3F)n2)cc1NC(=O)c1cnc(-c2ccc(N)nc2)o1 [Example 287]

>  <Endpoint Value>
6.00 to 7.00

$$$$

Exercise: pIC50 for Cc1ccc(-c2noc([C@H]3C[C@@H]3F)n2)cc1NC(=O)c1cnc2n1CCC2 [Example 37] ?
Solution: < 6.00

Exercise: Record: Cc1ccc(-c2noc([C@H]3C[C@@H]3F)n2)cc1NC(=O)c1cnn2cc(Cl)c(N3CC4(COC4)C3)cc12 [Example 229]
Solution: 6.00 to 7.00

Exercise: Also check Cc1cc(C)c(-c2ccn3ncc(C(=O)Nc4cc(-c5noc([C@H]6C[C@@H]6F)n5)ccc4C)c3c2)c(C)c1 [Example 171-2]
Solution: < 6.00

Exercise: Field entry: Cc1ccc(-c2ncc(OC(F)F)cn2)cc1NC(=O)c1cnn2ccc(N3CC4(C3)CC(O)(C(F)F)C4)cc12 [Example 314]
Solution: > 7.00
